Below is a list of entries, each paired with its recorded pKd value.
# systemTested: SARS-CoV-2 nucleocapsid protein (N-protein) (SARS-CoV-2, UniProt P0DTC9 1-419)
# protocol: FOPPR biosensor kinetics; 1x PBS pH 7.4, […]; temperature not stated
# conditionInfo: protein: commercial; chain copies: 2
// scale note: pKd = -log10(conc_M); give the bare number

NP-A48 (ssDNA, terminal amine (end not stated), coupled to carboxyl AuNP) DNA: GCTGGATGTCGCTTACGACAATATTCCTTAGGGGCACCGCTACATTGACACATCCAGC
8.58

Next, consider the following binder.
# query: pKd of entry NP-A61 (ssDNA, terminal amine (end not stated), coupled to carboxyl AuNP) DNA: GCTGGATGTTGACCTTTACAGATCGGATTCTGTGGGGCGTTAAACTGACACATCCAGC
8.30
